Each entry below carries its recorded Bactericidal activity (%) Macrophoma kawatsukai.
system: Macrophoma kawatsukai; test: Fungicidal (bactericidal) activity in vitro, PDA colony diameter; format: cell-based; conditions: 50 mg/kg
Return type: number; implicit unit %.

compound="C[C@@H]1N[C@H](C(=O)NNC(=O)C(C)(C)C)Cc2c1[nH]c1ccccc21 [Id-6]" observed=42.4
compound="CCCCCCCC=NNC(=O)[C@@H]1Cc2c([nH]c3ccccc23)[C@H](C)N1 [Ic-24]" observed=24.2
compound="CC(=NNC(=O)[C@@H]1Cc2c([nH]c3ccccc23)[C@H](C)N1)c1ccccc1 [Ic-27]" observed=39.4
compound="C[C@@H]1N[C@H](C(=O)NN=Cc2ccc3c(c2)OCCO3)Cc2c1[nH]c1ccccc21 [Ic-13]" observed=66.7
compound="CCCC=NNC(=O)[C@@H]1Cc2c([nH]c3ccccc23)[C@H](C)N1 [Ic-23]" observed=69.4

Then there is this compound:
stdin: // Bactericidal activity (%) Macrophoma kawatsukai lookup, key: C[C@@H]1N[C@H](C(=O)NN=Cc2ccc(Cl)cc2Cl)Cc2c1[nH]c1ccccc21 [Ic-6]
stdout: 48.5
